- TARGET_OF_ASSAY: Protein cereblon/Tyrosine-protein kinase BTK (Homo sapiens, UniProt Q06187+Q96SW2)
- PROCEDURE_SUMMARY: PROTAC activity at CRBN/BTK in human JeKo-1 cells assessed as induction of BTK degradation at 1000 nM incubated for 24 hrs by Western blotting analysis relative to control
- Assay type: cell-based
- Sequence (Q06187 2-659 limits assumed): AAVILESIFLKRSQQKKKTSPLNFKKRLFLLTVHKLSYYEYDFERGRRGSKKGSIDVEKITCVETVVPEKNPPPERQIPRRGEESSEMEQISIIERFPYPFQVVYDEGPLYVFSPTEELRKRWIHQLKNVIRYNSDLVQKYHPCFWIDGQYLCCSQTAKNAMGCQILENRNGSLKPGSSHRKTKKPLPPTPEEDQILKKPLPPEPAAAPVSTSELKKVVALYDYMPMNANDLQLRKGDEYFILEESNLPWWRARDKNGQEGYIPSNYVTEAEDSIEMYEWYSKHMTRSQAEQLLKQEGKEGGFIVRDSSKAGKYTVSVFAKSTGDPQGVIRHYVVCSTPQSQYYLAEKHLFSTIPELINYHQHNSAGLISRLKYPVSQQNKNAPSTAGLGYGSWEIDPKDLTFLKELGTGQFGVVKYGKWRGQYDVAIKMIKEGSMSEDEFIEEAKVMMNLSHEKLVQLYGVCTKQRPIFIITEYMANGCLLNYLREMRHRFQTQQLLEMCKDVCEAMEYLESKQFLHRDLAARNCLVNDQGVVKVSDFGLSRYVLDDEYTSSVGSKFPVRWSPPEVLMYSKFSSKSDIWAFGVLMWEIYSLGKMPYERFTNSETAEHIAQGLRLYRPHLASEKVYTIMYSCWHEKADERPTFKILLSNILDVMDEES
- Sequence (Q96SW2 whole entry partner): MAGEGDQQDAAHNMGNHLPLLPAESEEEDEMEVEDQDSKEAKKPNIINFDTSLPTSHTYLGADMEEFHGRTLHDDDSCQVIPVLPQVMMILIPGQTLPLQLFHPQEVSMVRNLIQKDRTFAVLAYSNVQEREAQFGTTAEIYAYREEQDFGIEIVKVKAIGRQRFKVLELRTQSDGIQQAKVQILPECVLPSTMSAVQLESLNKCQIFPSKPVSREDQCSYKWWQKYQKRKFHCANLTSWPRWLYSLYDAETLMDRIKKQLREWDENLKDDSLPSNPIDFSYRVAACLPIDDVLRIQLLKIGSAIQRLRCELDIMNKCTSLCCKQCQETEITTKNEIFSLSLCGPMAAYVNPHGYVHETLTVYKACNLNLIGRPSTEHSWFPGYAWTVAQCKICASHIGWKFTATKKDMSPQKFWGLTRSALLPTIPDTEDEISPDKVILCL
VALUE_KIND: Activity (%)

O=C1CCC(N2C(=O)c3ccc(N4CCC(CCN5CCC(CN[C@H]6CC[C@@H](Nc7ncnc8[nH]cc(C(=O)c9ccc(Oc%10ccccc%10)cc9Cl)c78)CC6)CC5)CC4)cc3C2=O)C(=O)N1 (stereo partly drawn); 69.5
O=C1CCC(N2C(=O)c3cc(F)c(N4CCC(CCN5CCC(CC(=O)N[C@H]6CC[C@@H](Nc7ncnc8[nH]cc(C(=O)c9ccc(Oc%10ccccc%10)cc9Cl)c78)CC6)CC5)CC4)cc3C2=O)C(=O)N1 (stereo partly drawn); 88.5
O=C1CCC(N2C(=O)c3ccc(N4CCC(CN5CCC(CN[C@H]6CC[C@@H](Nc7ncnc8[nH]cc(C(=O)c9ccc(Oc%10ccccc%10)cc9Cl)c78)CC6)CC5)CC4)cc3C2=O)C(=O)N1 (stereo partly drawn); 63.5

* * *

- TARGET_OF_ASSAY: Protein cereblon/Tyrosine-protein kinase BTK (Homo sapiens, UniProt Q06187+Q96SW2)
- PROCEDURE_SUMMARY: PROTAC activity at CRBN/BTK in human JeKo-1 cells assessed as induction of BTK degradation incubated for 24 hrs by Western blotting analysis
- Type: cell-based
- Sequence (Q06187 whole entry): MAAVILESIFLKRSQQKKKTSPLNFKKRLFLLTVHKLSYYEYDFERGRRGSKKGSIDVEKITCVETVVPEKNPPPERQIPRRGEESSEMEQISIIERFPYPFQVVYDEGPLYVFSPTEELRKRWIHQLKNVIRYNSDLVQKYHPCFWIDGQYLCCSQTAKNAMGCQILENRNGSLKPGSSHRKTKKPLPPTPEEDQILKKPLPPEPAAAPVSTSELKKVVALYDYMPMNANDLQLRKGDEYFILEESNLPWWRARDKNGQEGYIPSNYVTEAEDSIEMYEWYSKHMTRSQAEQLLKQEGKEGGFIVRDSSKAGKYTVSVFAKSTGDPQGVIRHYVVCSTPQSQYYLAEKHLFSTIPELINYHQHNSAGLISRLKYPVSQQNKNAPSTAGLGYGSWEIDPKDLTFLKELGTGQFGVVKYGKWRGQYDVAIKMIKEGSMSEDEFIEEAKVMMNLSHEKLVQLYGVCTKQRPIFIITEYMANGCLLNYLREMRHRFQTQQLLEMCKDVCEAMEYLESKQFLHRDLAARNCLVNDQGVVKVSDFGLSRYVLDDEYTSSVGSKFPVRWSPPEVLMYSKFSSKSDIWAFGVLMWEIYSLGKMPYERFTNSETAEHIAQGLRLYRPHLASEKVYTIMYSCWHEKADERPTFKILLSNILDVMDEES
- Sequence (Q96SW2 whole entry): as the sequence (Q96SW2 whole entry partner) above
VALUE_KIND: DC50 (nM)

Example entries and their recorded answers appear below.
O=C1CCC(N2C(=O)c3ccc(N4CCC(CCN5CCC(CN[C@H]6CC[C@@H](Nc7ncnc8[nH]cc(C(=O)c9ccc(Oc%10ccccc%10)cc9Cl)c78)CC6)CC5)CC4)cc3C2=O)C(=O)N1 (stereo not given in full); 100
O=C1CCC(N2C(=O)c3cc(F)c(N4CCC(CCN5CCC(CC(=O)N[C@H]6CC[C@@H](Nc7ncnc8[nH]cc(C(=O)c9ccc(Oc%10ccccc%10)cc9Cl)c78)CC6)CC5)CC4)cc3C2=O)C(=O)N1 (stereo not given in full); 9.3

(a) O=C1CCC(N2C(=O)c3ccc(N4CCC(CN5CCC(CC(=O)N[C@H]6CC[C@@H](Nc7ncnc8[nH]cc(C(=O)c9ccc(Oc%10ccccc%10)cc9Cl)c78)CC6)CC5)CC4)cc3C2=O)C(=O)N1 (stereo not given in full)
(b) O=C1CCC(N2Cc3cc(N4CCC(CCN5CCC(CC(=O)N[C@H]6CC[C@@H](Nc7ncnc8[nH]cc(C(=O)c9ccc(Oc%10ccccc%10)cc9Cl)c78)CC6)CC5)CC4)ccc3C2=O)C(=O)N1 (stereo not given in full)
**Q:** Quick check, higher DC50 between a and b ? Selection: enter the item's label.
**A:** a

* * *

- TARGET_OF_ASSAY: Protein cereblon/Tyrosine-protein kinase BTK (Homo sapiens, UniProt Q06187+Q96SW2)
- PROCEDURE_SUMMARY: PROTAC activity at CRBN/BTK in human JeKo-1 cells assessed as induction of BTK degradation at 100 nM incubated for 24 hrs by Western blotting analysis relative to control
- Assay type: cell-based
VALUE_KIND: Activity (%)

The following compounds have reported results that may help.
O=C1CCC(N2Cc3cc(N4CCC(CCN5CCC(CC(=O)N[C@H]6CC[C@@H](Nc7ncnc8[nH]cc(C(=O)c9ccc(Oc%10ccccc%10)cc9Cl)c78)CC6)CC5)CC4)ccc3C2=O)C(=O)N1 (stereo not given in full); 80.4
O=C1CCC(N2C(=O)c3ccc(N4CCC(CN5CCC(N[C@H]6CC[C@@H](Nc7ncnc8[nH]cc(C(=O)c9ccc(Oc%10ccccc%10)cc9Cl)c78)CC6)CC5)CC4)cc3C2=O)C(=O)N1 (stereo not given in full); 51.5
O=C1CCC(N2Cc3cc(N4CCC(CCN5CCC(CC(=O)N[C@H]6CC[C@@H](Nc7ncnc8[nH]cc(C(=O)c9ccc(Oc%10ccccc%10)cc9Cl)c78)CC6)CC5)CC4)c(F)cc3C2=O)C(=O)N1 (stereo not given in full); 91

(A) O=C1CCC(N2C(=O)c3cccc(NCCOCCOCCOCCOCCOCCNC(=O)N[C@H]4CC[C@@H](Nc5ncnc6[nH]cc(C(=O)c7ccc(Oc8ccccc8)cc7Cl)c56)CC4)c3C2=O)C(=O)N1 (stereo not given in full)
(B) O=C1CCC(N2C(=O)c3ccc(N4CCC(CN5CCC(CN[C@H]6CC[C@@H](Nc7ncnc8[nH]cc(C(=O)c9ccc(Oc%10ccccc%10)cc9Cl)c78)CC6)CC5)CC4)cc3C2=O)C(=O)N1 (stereo not given in full)
**Q:** Could you point out whether the larger Activity belongs to A or to B ? Answer with the label corresponding to your selection.
**A:** A

* * *

- TARGET_OF_ASSAY: Protein cereblon/Tyrosine-protein kinase BTK (Homo sapiens, UniProt Q06187+Q96SW2)
- PROCEDURE_SUMMARY: PROTAC activity at CRBN/BTK in human JeKo-1 cells assessed as induction of BTK degradation at 1000 nM incubated for 24 hrs by Western blotting analysis relative to control
- Assay type: cell-based
VALUE_KIND: Activity (%)

O=C1CCC(N2Cc3cc(N4CCC(CCN5CCC(CC(=O)N[C@H]6CC[C@@H](Nc7ncnc8[nH]cc(C(=O)c9ccc(Oc%10ccccc%10)cc9Cl)c78)CC6)CC5)CC4)ccc3C2=O)C(=O)N1 (stereo partly drawn); 86

(I) O=C1CCC(N2C(=O)c3ccc(N4CCC(CN5CCC(CC(=O)N[C@H]6CC[C@@H](Nc7ncnc8[nH]cc(C(=O)c9ccc(Oc%10ccccc%10)cc9Cl)c78)CC6)CC5)CC4)cc3C2=O)C(=O)N1 (stereo partly drawn)
(II) O=C1CCC(N2C(=O)c3ccc(N4CCC(CN5CCC(C(=O)N[C@H]6CC[C@@H](Nc7ncnc8[nH]cc(C(=O)c9ccc(Oc%10ccccc%10)cc9Cl)c78)CC6)CC5)CC4)cc3C2=O)C(=O)N1 (stereo partly drawn)
**Q:** // compare measured Activity between I and II ; output the lower one Identify your pick by its label.
**A:** II

* * *

- TARGET_OF_ASSAY: Protein cereblon/Tyrosine-protein kinase BTK (Homo sapiens, UniProt Q06187+Q96SW2)
- PROCEDURE_SUMMARY: PROTAC activity at CRBN/BTK in human JeKo-1 cells assessed as induction of BTK degradation incubated for 24 hrs by Western blotting analysis
- Format: cell-based
VALUE_KIND: DC50 (nM)

O=C1CCC(N2C(=O)c3ccc(N4CCC(CCN5CCC(CC(=O)N[C@H]6CC[C@@H](Nc7ncnc8[nH]cc(C(=O)c9ccc(Oc%10ccccc%10)cc9Cl)c78)CC6)CC5)CC4)cc3C2=O)C(=O)N1 (stereo partly drawn); 8.8

(a) O=C1CCC(N2C(=O)c3cccc(NCCOCCOCCOCCOCCOCCNC(=O)N[C@H]4CC[C@@H](Nc5ncnc6[nH]cc(C(=O)c7ccc(Oc8ccccc8)cc7Cl)c56)CC4)c3C2=O)C(=O)N1 (stereo partly drawn)
(b) O=C1CCC(N2Cc3cc(N4CCC(CCN5CCC(CC(=O)N[C@H]6CC[C@@H](Nc7ncnc8[nH]cc(C(=O)c9ccc(Oc%10ccccc%10)cc9Cl)c78)CC6)CC5)CC4)c(F)cc3C2=O)C(=O)N1 (stereo partly drawn)
**Q:** Which of the two gives a bigger number for DC50: a or b ? API: response body contains the label of the selected item.
**A:** a
(a: 20 nM, b: 7 nM)

* * *

- TARGET_OF_ASSAY: Protein cereblon/Tyrosine-protein kinase BTK (Homo sapiens, UniProt Q06187+Q96SW2)
- PROCEDURE_SUMMARY: PROTAC activity at CRBN/BTK in human JeKo-1 cells assessed as induction of BTK degradation at 1000 nM incubated for 24 hrs by Western blotting analysis relative to control
- Assay type: cell-based
VALUE_KIND: Activity (%)

Example cases with answers are listed next.
O=C1CCC(N2C(=O)c3cccc(NCCOCCOCCOCCOCCOCCNC(=O)N[C@H]4CC[C@@H](Nc5ncnc6[nH]cc(C(=O)c7ccc(Oc8ccccc8)cc7Cl)c56)CC4)c3C2=O)C(=O)N1 (stereo not given in full); 88.6
O=C1CCC(N2C(=O)c3ccc(N4CCC(CCN5CCC(CC(=O)N[C@H]6CC[C@@H](Nc7ncnc8[nH]cc(C(=O)c9ccc(Oc%10ccccc%10)cc9Cl)c78)CC6)CC5)CC4)cc3C2=O)C(=O)N1 (stereo not given in full); 82.5
O=C1CCC(N2Cc3cc(N4CCC(CCN5CCC(CC(=O)N[C@H]6CC[C@@H](Nc7ncnc8[nH]cc(C(=O)c9ccc(Oc%10ccccc%10)cc9Cl)c78)CC6)CC5)CC4)c(F)cc3C2=O)C(=O)N1 (stereo not given in full); 89

(1) O=C1CCC(N2C(=O)c3ccc(N4CCC(CN5CC(N[C@H]6CC[C@@H](Nc7ncnc8[nH]cc(C(=O)c9ccc(Oc%10ccccc%10)cc9Cl)c78)CC6)C5)CC4)cc3C2=O)C(=O)N1 (stereo not given in full)
(2) O=C1CCC(N2C(=O)c3ccc(N4CCC(CN5CC(CN[C@H]6CC[C@@H](Nc7ncnc8[nH]cc(C(=O)c9ccc(Oc%10ccccc%10)cc9Cl)c78)CC6)C5)CC4)cc3C2=O)C(=O)N1 (stereo not given in full)
**Q:** For the pair 1 and 2 , which entry has the numerically smaller recorded Activity? Answer with the label corresponding to your selection.
**A:** 1
